- System Tested: T. gondii ME49Luc in IFN-y HeLa, luciferase, 72 h
- Assay Method Text: T. gondii growth inhibition with IFN-gamma, dose response, cell-based, ME49Luc, HeLa, luciferase, 72 h (AID 1259418)
Inconclusive results are not listed. Activity calls are given as the source filed them.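 The calls were made as follows: active = fitted half-maximal concentration of signal decrease at or below twice the sample's top tested concentration; inconclusive = flat curve between -70 and -30 percent, or poor fit; inactive = flat within 30 percent, signal rise, or potency above limit.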

- Compound: "CC(C)NC(=O)N1CC(=O)N2[C@H](C1)[C@@H](c1ccc(/C=C/c3ccccc3)cc1)[C@@H]2CO"
  AC50: "10.4 µM"
- Compound: "COCCn1c(=S)[nH]c2cc(C(=O)N3CCC(O)(c4cccc(C(F)(F)F)c4)CC3)ccc2c1=O"
  AC50: "34.1 µM"
- Compound: "Cn1nc2c(c1C(=O)Nc1ccc(N3CCCCC3)c(F)c1)CCCC2"
  AC50: "15.9 µM"
- Compound: "CCCCC(CC)CNC(=O)CC1Nc2c3ccccc3nc(=S)n2C1=O (stereo not drawn)"
  AC50: "17.9 µM"
- Compound: "O=C1CCc2cc(S(=O)(=O)N3CCc4ccccc4C3)cc3c2N1CCC3"
  AC50: "31.1 µM"
- Compound: "Cc1ccc(CNC(=O)CC2Nc3c4ccccc4nc(=S)n3C2=O)cc1 (stereo not drawn)"
  AC50: "31.5 µM"
- Compound: "COc1ccc(NC(=O)N2CCCCN3[C@H](C2)[C@@H](c2ccc(-c4ccccc4F)cc2)[C@@H]3CO)cc1"
  AC50: "32.8 µM"
- Compound: "Cc1ccc(-c2noc(-c3ccc(N4CCC(N5CCCCC5)CC4)nc3)n2)cc1"
  AC50: "24.8 µM"
- Compound: "COc1ccc(CN2CCC(c3cc4c(ncn4C)c(-c4ccc(OC)cc4)n3)CC2)cc1"
  AC50: "24.7 µM"
- Compound: "CCCNC(=O)N1[C@H](CO)[C@@H](c2ccc(-c3ccccc3F)cc2)[C@@H]1C#N"
  AC50: "19.9 µM"
- Compound: "O=C(NCc1ccc(F)cc1F)c1cc(-c2cnc(N3CCCC3)nc2)cn1CC1CC1"
  AC50: "13.2 µM"
- Compound: "CCOc1ccccc1N(Cc1nc(-c2ccc(C)cc2)oc1C)S(=O)(=O)c1cccs1"
  AC50: "9.38 µM"
- Compound: "C[C@H](CO)N1C[C@H](C)[C@H](CN(C)C(=O)Nc2ccc(C(F)(F)F)cc2)Oc2c(NC(=O)c3ccc(-c4nccs4)cc3)cccc2C1=O"
  AC50: "18 µM"
- Compound: "CS(=O)(=O)N1CCC(C(=O)NCCc2csc(-c3cccs3)n2)CC1"
  AC50: "> 39 µM (inactive)"
- Compound: "O=C1CCc2cc(NC(=O)c3ccccc3F)ccc2N1"
  AC50: "29.7 µM"
- Compound: "CN(C)C(=O)c1ccc(-c2ccc(C3[C@@H]4CN(Cc5ccc6c(c5)OCO6)C[C@H]3N4)cc2)cc1 (stereo partly drawn)"
  AC50: "17.3 µM"
- Compound: "COc1ccccc1-c1nc(CN(c2ccccc2OC)S(=O)(=O)c2ccccc2)c(C)o1"
  AC50: "5.18 µM"
- Compound: "Cc1cc(C)c(S(=O)(=O)N2CCC(C(=O)NCCc3csc(-c4ccccc4)n3)CC2)cc1C"
  AC50: "14.7 µM"
- Compound: "CCCCNC(=O)CC1N=C2c3ccccc3N=C(SCc3ccc(C)cc3)N2C1=O (stereo not drawn)"
  AC50: "10.4 µM"
- Compound: "COc1cccc(-c2ccc(C3[C@@H]4CN(Cc5ccccn5)C[C@H]3N4)cc2)c1 (stereo partly drawn)"
  AC50: "15.6 µM"
- Compound: "COc1ccc2c(c1)NC1(CCN(C(=O)c3ccc(F)cc3)CC1)c1cccn1-2"
  AC50: "> 20 µM (inactive)"
- Compound: "COc1cccc(S(=O)(=O)N2CCCCN3[C@H](CO)[C@H](c4ccc(-c5ccccc5)cc4)[C@H]3C2)c1"
  AC50: "5.11 µM"
- Compound: "COc1ccc(CNC2=NCCNC23CCN(S(=O)(=O)c2cc(C)c(C)cc2C)CC3)cc1"
  AC50: "12.6 µM"
- Compound: "COc1cccc(CNC2=NCCNC23CCN(S(=O)(=O)c2cc(C)c(C)cc2C)CC3)c1"
  AC50: "9.29 µM"
- Compound: "Cc1ccc(NC(=O)N2CCN(Cc3nc(-c4cccc(Cl)c4)oc3C)CC2)cc1Cl"
  AC50: "15.7 µM"
- Compound: "O=S(=O)(c1ccccc1)N1CCc2c([nH]c3ccccc23)C1c1ccc(F)c(F)c1 (stereo not drawn)"
  AC50: "13.9 µM"
- Compound: "CCOc1ccc(-c2nc3c(s2)CN(S(=O)(=O)c2cccc(F)c2)CC3)cc1"
  AC50: "> 39 µM (inactive)"
- Compound: "COc1ccc(-c2nc(N(C)Cc3ccco3)c3ccccc3n2)cc1"
  AC50: "17 µM"
- Compound: "O=C(CCC1N=C2c3ccccc3N=C(SCc3cccc(F)c3)N2C1=O)NCc1ccccc1 (stereo not drawn)"
  AC50: "27.4 µM"
- Compound: "Cc1ccc(-c2coc(-c3ccc(NS(=O)(=O)c4ccc(Br)cc4)cc3)n2)c(C)c1"
  AC50: "27.9 µM"
- Compound: "CC[C@H]1CN2CCC1C[C@@H]2[C@@H](O)c1ccnc2ccc(OC)cc12 (stereo partly drawn)"
  AC50: "2.25 µM"
- Compound: "CCc1ccc(S(=O)(=O)N2CCC3(CC2)NCCN=C3NCc2ccccc2)cc1"
  AC50: "21.8 µM"
- Compound: "O=C(c1cnccn1)N1CC(=O)N2[C@H](CO)[C@H](c3ccc(/C=C/c4ccccc4)cc3)[C@@H]2C1"
  AC50: "24.8 µM"
- Compound: "CC(C)CCN1Cc2c(C(=O)Nc3cccc(F)c3)ncn2-c2ccccc2S1(=O)=O"
  AC50: "13 µM"
- Compound: "CNC(=O)NCC1CCC2(CCN(Cc3ccccc3)CC2)CO1 (stereo not drawn)"
  AC50: "26.3 µM"
- Compound: "Cc1cccc(S(=O)(=O)N2C[C@H]3[C@@H](c4ccccc42)[C@@H](CO)N3C(=O)c2ccccc2)c1"
  AC50: "> 39 µM (inactive)"
- Compound: "O=C(CC1N=C2c3ccccc3N=C(SCc3ccccc3Cl)N2C1=O)NCc1cccs1 (stereo not drawn)"
  AC50: "21.5 µM"
- Compound: "Cc1ccc(-c2nc(Cn3nnc(-c4nc(-c5ccccc5)no4)c3C)c(C)o2)cc1"
  AC50: "> 20 µM (inactive)"
